# TEST_METHOD_NOTES: High-throughput drug toxicity screening in the BPDCN cell line Cal-1 (AID 1224825);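 further: cells exposed to compounds for 48 h; 100% = DMSO and 0% = bortezomib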
# CONDITION_DETAILS: Cal-1 BPDCN cell viability, qHTS; at 45.8 µM (top of the series) unless noted
# From the text: Blastic plasmacytoid dendritic cell neoplasm (BPDCN) is a rare, aggressive and largely incurable hematologic malignancy originating from plasmacytoid dendritic cells (pDCs). Although an initial response to chemotherapy is common, BPDCN prognosis is extremely poor and most patients relapse with drug-resistant disease leading to a median overall survival of ~1 year after diagnosis. […]
Measured viability (% of control) accompanies every entry in the list below.

COMPOUND | viability (% of control), %
COc1cc(F)c(F)c(Nc2ccc(I)cc2F)c1NS(=O)(=O)C1(C[C@H](O)CO)CC1 | 82.2
O=S(=O)(N=Cc1c(O)ccc2ccccc12)c1cccs1 | 45.4
NC(N)=NC(=O)c1nc(Cl)c(N)nc1N | 23.5
CCOC(=O)N1CCC(=C2c3ccc(Cl)cc3CCc3cccnc32)CC1 | 87.3
COc1ccc(COc2cc3oc(=O)c4cc(C(C)O)ccc4c3cc2OC)cc1 (configuration not stated) | 33.4
Nc1ccc(S(=O)(=O)Nc2ccnn2-c2ccccc2)cc1 | 115
Cn1cnc2c(F)c(Nc3ccc(Br)cc3Cl)c(C(=O)NOCCO)cc21 | 23.1
CO[C@@H]1[C@H](N(C)C(=O)c2ccccc2)C[C@H]2O[C@]1(C)n1c3ccccc3c3c4c(c5c6ccccc6n2c5c31)C(=O)NC4 | 14.1
OCCC#Cc1nc(-c2ccc(F)cc2)c(-c2ccncc2)n1CCCc1ccccc1 | 18.4
COc1ccccc1[C@H](c1cccc2ccccc12)[C@@](C)(C#N)C(=O)N1CCC(c2cccc(C(F)(F)F)c2)CC1 | 10.6
Cc1cc(-c2ccc(CC(=O)Nc3ccc(-c4cccnc4)cc3)cc2)ccn1 | 20.4
N=c1nc(N2CCCCC2)cc(N)n1O | 106
COc1cc2nccc(Oc3ccc(NC(=O)NC4CC4)c(Cl)c3)c2cc1C(N)=O | 5.43
C[C@]1(c2nc3c(C(N)=O)cccc3[nH]2)CCCN1 | 88
O=C1CCc2cc(OCCCCc3nnnn3C3CCCCC3)ccc2N1 | 84.4
CCCCCCCc1ccc(CCc2cccc(O)c2C(=O)O)cc1 | 66.1

====

# Test system: AA1029
# TEST_METHOD_NOTES: qHTS profiling for inhibitors of Plasmodium falciparum proliferation (AID 504749); further: nearly all actives have a fitted effect of over 60% in size
# CONDITION_DETAILS: P. falciparum in erythrocytes, SYBR Green DNA, 72 h; series mostly up to 28.7 µM
Inconclusive results are not listed. Active and inactive are the calls of the source. Calls follow the shape of the dose curve; as a rule, active = well fitted inhibition curve with a large enough effect; inconclusive = small, poorly fitted or top-dose-only effect; inactive = flat fitted curve, though single readings scatter.
Outcome codes: class 1 = active, class 0 = inactive

COMPOUND | CLASS_LABEL
NS(=O)(=O)c1cc2c(cc1Cl)NC=NS2(=O)=O | class 0
Nc1nc2ccc(OC(F)(F)F)cc2s1 | class 0
CNC[C@H](O)c1cccc(O)c1 | class 0
CC(C)C[C@H](NC(=O)[C@@H](O)[C@H](N)Cc1ccccc1)C(=O)O | class 1
Nc1ccc(S(=O)(=O)Nc2ccnn2-c2ccccc2)cc1 | class 0
NNCCc1ccccc1 | class 0
CCOC(=O)C1=C[C@]2(CC)CCCN3CCc4c(n1c1ccccc41)[C@@H]32 | class 1
CCc1ccc(CCOc2ccc(CC3SC(=O)NC3=O)cc2)nc1 (stereo not drawn) | class 0
CC(=O)Oc1ccccc1C(=O)O | class 0
CC(C[N+](C)(C)C)OC(N)=O (stereo not drawn) | class 0
N=c1nc(N2CCCCC2)cc(N)n1O | class 0
Oc1ccc(C2CNCCc3c2cc(O)c(O)c3Cl)cc1 (stereo not drawn) | class 0
NC(=O)c1cnccn1 | class 0

====

# TEST_METHOD_NOTES: Quantitative High-Throughput drug screen in 47 multiple myeloma cell lines against the NCATS MIPE library collection: KMS12BM_JCRB cell viability assay (AID 1918971); further: nearly all actives have a fitted effect of over 35% in size
# CONDITION_DETAILS: KMS12BM myeloma viability, CellTiter-Glo ATP, 48 h; series mostly up to 45.8 µM
# Description: PI: Beverly A. Mock Ph.D. Laboratory of Cancer Biology and Genetics, Center for Cancer Research, National Cancer Institute, National Institute of Health, Bethesda, Maryland […] 5; Detector; 425V; Luminescence; Viewlux PerkinElmer. […] 1. […] Briefly, the corresponding myeloma cell lines were screened in 1,536-well plates with 500 cells, 5-uL per well for inhibition of cell viability (assessed by measuring ATP levels with CellTiterGlo). […]
Records with an inconclusive call do not appear. Calls of active or inactive are those of the source. Calls come from the whole dose curve; as a rule, active = well fitted cell-killing curve with a large enough effect; inconclusive = small, poorly fitted or top-dose-only effect, or effect the other way; inactive = no such curve, though single readings can be large or run the other way.
Possible outcomes: active, inactive

COMPOUND | CLASS_LABEL
CCOC(=O)N[C@@H]1CC[C@@H]2[C@@H](C1)C[C@H]1C(=O)O[C@H](C)[C@H]1[C@@H]2C=Cc1ccc(-c2cccc(F)c2)cn1 | active
NC(=O)c1ccc(-c2nc(-c3ccc4c(c3)OCCO4)c(-c3ccccn3)[nH]2)cc1 | inactive
CN[C@@H](C)C(=O)N[C@H]1CCCC[C@H]2CC[C@@H](C(=O)N[C@@H](c3ccccc3)c3cn(CCCCc4ccc(CCCCn5cc([C@@H](NC(=O)[C@@H]6CC[C@@H]7CCCC[C@H](NC(=O)[C@H](C)NC)C(=O)N76)c6ccccc6)nn5)cc4)nn3)N2C1=O | inactive
Cc1ccccc1C(C(=O)NC1CCCC1)N(C(=O)Cn1cnc2ccccc21)c1cccc(F)c1 (stereo not given) | active
Cc1cccc(-c2nn(C(=S)Nc3ccccc3)cc2-c2ccnc3ccccc23)n1 | active
S=C(NCc1ccc2c(c1)OCO2)N1CCN(c2ncnc3c2oc2ccccc23)CC1 | active
NC[C@H](O)c1ccc(O)c(O)c1 | active
O=C(O)CCc1ccc(NCc2cccc(Oc3ccccc3)c2)cc1 | inactive
COc1cc(Nc2ncc3c(n2)-c2ccc(Cl)cc2C(c2c(F)cccc2OC)=NC3)ccc1C(=O)O | inactive
O=C(O)[C@@H](c1ccc(OCc2ccc3ccccc3n2)cc1)C1CCCC1 | inactive
C[C@H](NC(=O)Cc1cc(F)cc(F)c1)C(=O)N[C@@H]1C(=O)N(C)c2ccccc2-c2ccccc21 | inactive
Cc1cnc(NC(=O)C2=C(O)c3ccccc3S(=O)(=O)N2C)s1 | inactive
CO[C@@H]1[C@H](N(C)C(=O)c2ccccc2)C[C@H]2O[C@]1(C)n1c3ccccc3c3c4c(c5c6ccccc6n2c5c31)C(=O)NC4 | active
c1ccc(-c2nn3c(c2-c2ccnc4cc(OCCN5CCOCC5)ccc24)CCC3)nc1 | active
O=C1CCC(N2C(=O)c3ccccc3C2=O)C(=O)N1 (stereo not given) | active

====

# TEST_METHOD_NOTES: Quantitative High-Throughput drug screen in 47 multiple myeloma cell lines against the NCATS MIPE library collection: U266_ATCC cell viability assay (AID 1919864); further: nearly all actives have a fitted effect of over 35% in size
# CONDITION_DETAILS: U266 myeloma viability, CellTiter-Glo ATP luminescence, 48 h; series mostly up to 45.8 µM
Records with an inconclusive call do not appear. The source made the active and inactive calls. Calls come from the whole dose curve; as a rule, active = well fitted cell-killing curve with a large enough effect; inconclusive = small, poorly fitted or top-dose-only effect, or effect the other way; inactive = no such curve, though single readings can be large or run the other way.
Outcome codes: active, inactive

STRUCTURE | CLASS_LABEL
Cn1c(=O)c(F)c(Nc2ccc(I)cc2F)c2c(=O)n(C[C@@H](O)CO)cnc21 | active
COc1ccc([C@@H]2CC(=O)c3c(O)cc(O[C@@H]4O[C@H](CO[C@@H]5O[C@@H](C)[C@H](O)[C@@H](O)[C@@H]5O)[C@@H](O)[C@H](O)[C@@H]4O)cc3O2)cc1O | inactive
CCCS(=O)(=O)Nc1ccc(F)c(C(=O)c2c[nH]c3ncc(Cl)cc23)c1F | active
S=C(NCc1ccc2c(c1)OCO2)N1CCN(c2ncnc3c2oc2ccccc23)CC1 | active
Cc1cc2c(F)c(Oc3ncnn4cc(OC[C@@H](C)O)c(C)c34)ccc2[nH]1 | active
CNC(=O)c1ccc(C)c(-n2c(C)cc(OCc3ccc(F)cc3F)c(Br)c2=O)c1 | inactive
COc1ccc(-c2ccc3c(N4CCOCC4)nc(N4C[C@@H](C)O[C@@H](C)C4)nc3n2)cc1CO | active
CCCCCCCc1ccc(CCc2cccc(O)c2C(=O)O)cc1 | inactive
CC(C)(Sc1ccc(CCN(CCCCC2CCCCC2)C(=O)NC2CCCCC2)cc1)C(=O)O | active
COc1cc2nccc(Oc3ccc(NC(=O)NC4CC4)c(Cl)c3)c2cc1C(N)=O | active
Fc1ccc(Cl)cc1-c1nc(Nc2ccncc2)c2nccnc2n1 | inactive

====

# TEST_METHOD_NOTES: qHTS of pediatric cancer cell lines to identify multiple opportunities for drug repurposing: Primary screen for MG 63 (6-TG R) cells (AID 1347105); further: nearly all actives have a fitted effect of over 50% in size
# CONDITION_DETAILS: MG 63 (6-TG R) viability, CellTiter-Glo, 48 h; series mostly up to 46 µM
Records with an inconclusive call do not appear. The source made the active and inactive calls. Calls follow the shape of the dose curve; as a rule, active = well fitted cell-killing curve with a large enough effect; inconclusive = small, poorly fitted or top-dose-only effect; inactive = no such curve, though single readings can be large or run the other way.
Labels: active, inactive

COMPOUND | CLASS_LABEL
C[C@H](NC(=O)Cc1cc(F)cc(F)c1)C(=O)N[C@@H]1C(=O)N(C)c2ccccc2-c2ccccc21 | active
O=C(O)CCc1ccc(NCc2cccc(Oc3ccccc3)c2)cc1 | inactive
O=c1ncn2nc(Sc3ccc(F)cc3F)ccc2c1-c1c(Cl)cccc1Cl | inactive
O=C(O)[C@@H](c1ccc(OCc2ccc3ccccc3n2)cc1)C1CCCC1 | inactive
CCC(C)N(C)C(=O)c1cc2ccccc2c(-c2ccccc2Cl)n1 (configuration not stated) | inactive
O=C1CCCC2=C1C(c1[nH]ncc1Cl)N=C(Nc1nc3ccccc3o1)N2 (configuration not stated) | inactive
COc1ccc(CC2=NN3C([C@@H](CCc4ccccc4)[C@@H](C)O)=NC(C)C3C(=O)N2)cc1OC (some centres not stated) | inactive
OCCn1cc(-c2cnc3nnn(Cc4ccc5ncccc5c4)c3n2)cn1 | inactive
CCOc1ccc(Cc2cc([C@@H]3O[C@H](CO)[C@@H](O)[C@H](O)[C@@H]3O)ccc2Cl)cc1 | inactive
Nc1nccc(-c2ccc3noc(-c4ccc(Cl)cc4)c3c2)n1 | inactive
Cc1cc(SCc2sc(-c3ccc(C(F)(F)F)cc3)nc2C)ccc1OCC(=O)O | inactive
CNCc1ccc(-c2[nH]c3cc(F)cc4c3c2CCNC4=O)cc1 | inactive
